- System: MOLT-4 (leukemia)
- Assay Method Text: MTT cytotoxicity assay, 72 hours (Example 13)
- Format: cell-based, human
- Condition Context: MOLT4, 1 nM
Non-standard residues stand in square brackets, D forms with d. Residues, ends and D or L forms follow the SMILES beside them. Aib = CC(C)(N)C(=O)O
Value Type: Percent Cytotoxicity (%)
Entry rule: numbers only, all in %.

A selection of reference data follows.
Compound: CC[C@H](C)[C@H](NC(=O)[C@H](Cc1c[nH]cn1)NC(=O)CNC(=O)[C@@H](NC(=O)C(C)(C)NC(=O)[C@H](Cc1c[nH]c2ccccc12)NC(=O)[C@H](CCC(N)=O)NC(=O)[C@H](N)Cc1ccccc1)C(C)C)C(N)=O [SEQ ID: 6, D-Phe-Gln-Trp-Aib-Val-Gly-His-Ile-NH2] (H-[dF]QW[Aib]VGHI-NH2; N-terminus assumed)
Target Desc: MOLT-4 (leukemia)
Percent Cytotoxicity (%): 0.8

Compound: CC(C)C[C@H](NC(=O)[C@H](Cc1c[nH]cn1)NC(=O)C(C)(C)NC(=O)[C@@H](NC(=O)[C@H](C)NC(=O)[C@@H](Cc1c[nH]c2ccccc12)NC(=O)[C@H](CCC(N)=O)NC(=O)[C@H](N)Cc1ccccc1)C(C)C)C(N)=O [SEQ ID: 5, D-Phe-Gln-D-Trp-Ala-Val-Aib-His-Leu-NH2] (H-[dF]Q[dW]AV[Aib]HL-NH2; N-terminus assumed)
Target Desc: MOLT-4 (leukemia)
Percent Cytotoxicity (%): 6.4

Compound: CC(C)C[C@H](NC(=O)[C@H](Cc1c[nH]cn1)NC(=O)CNC(=O)[C@@H](NC(=O)C(C)(C)NC(=O)[C@H](Cc1c[nH]c2ccccc12)NC(=O)[C@H](CCC(N)=O)NC(=O)[C@H](N)Cc1ccccc1)C(C)C)C(N)=O [SEQ ID: 4, D-Phe-Gln-Trp-Aib-Val-Gly-His-Leu-NH2] (H-[dF]QW[Aib]VGHL-NH2; N-terminus assumed)
Target Desc: MOLT-4 (leukemia)
Percent Cytotoxicity (%): 19.3

Now consider a different compound.
Log: MOLT-4 (leukemia), compound CCCC(CCC)(NC(=O)[C@@H](NC(=O)[C@H](C)NC(=O)[C@@H](Cc1c[nH]c2ccccc12)NC(=O)[C@H](CCC(N)=O)NC(=O)[C@H](N)Cc1ccccc1)C(C)C)C(=O)N[C@@H](Cc1c[nH]cn1)C(=O)N[C@@H](CC(C)C)C(N)=O , Percent Cytotoxicity = 9.3

----------
- Tested on: SW620 (colon)
- Assay Method Text: MTT cytotoxicity assay, 72 hours (Example 13)
- Type: cell-based, human
- Condition Context: SW620, 100 nM
Non-standard residues stand in square brackets, D forms with d. Residues, ends and D or L forms follow the SMILES beside them. Aib = CC(C)(N)C(=O)O
Each item that follows carries a reported Percent Cytotoxicity.
Please state the figure in %; there is no need to write the unit.

Take a look at these entries with their results.
Compound: CCCC(CCC)(NC(=O)[C@@H](NC(=O)[C@H](C)NC(=O)[C@@H](Cc1c[nH]c2ccccc12)NC(=O)[C@H](CCC(N)=O)NC(=O)[C@H](N)Cc1ccccc1)C(C)C)C(=O)N[C@@H](Cc1c[nH]cn1)C(=O)N[C@@H](CC(C)C)C(N)=O [SEQ ID: 8, D-Phe-Gln-D-Trp-Ala-Val-Dpg-His-Leu-NH2]
Value Type: Percent Cytotoxicity
Observed: 29.4

Compound: CC[C@H](C)[C@H](NC(=O)[C@H](Cc1c[nH]cn1)NC(=O)CNC(=O)[C@@H](NC(=O)C(C)(C)NC(=O)[C@H](Cc1c[nH]c2ccccc12)NC(=O)[C@H](CCC(N)=O)NC(=O)[C@H](N)Cc1ccccc1)C(C)C)C(N)=O [SEQ ID: 6, D-Phe-Gln-Trp-Aib-Val-Gly-His-Ile-NH2] (H-[dF]QW[Aib]VGHI-NH2; N-terminus assumed)
Value Type: Percent Cytotoxicity
Observed: 23.5

Compound: CC[C@H](C)[C@H](NC(=O)[C@H](Cc1c[nH]cn1)NC(=O)C(C)(C)NC(=O)[C@@H](NC(=O)[C@H](C)NC(=O)[C@H](Cc1c[nH]c2ccccc12)NC(=O)[C@H](CCC(N)=O)NC(=O)[C@H](N)Cc1ccccc1)C(C)C)C(N)=O [SEQ ID: 7, D-Phe-Gln-Trp-Ala-Val-Aib-His-Ile-NH2] (H-[dF]QWAV[Aib]HI-NH2; N-terminus assumed)
Value Type: Percent Cytotoxicity
Observed: 25.4

Compound: CC(C)C[C@H](NC(=O)[C@H](Cc1c[nH]cn1)NC(=O)C(C)(C)NC(=O)[C@@H](NC(=O)[C@H](C)NC(=O)[C@@H](Cc1c[nH]c2ccccc12)NC(=O)[C@H](CCC(N)=O)NC(=O)[C@H](N)Cc1ccccc1)C(C)C)C(N)=O [SEQ ID: 5, D-Phe-Gln-D-Trp-Ala-Val-Aib-His-Leu-NH2] (H-[dF]Q[dW]AV[Aib]HL-NH2; N-terminus assumed)
Value Type: Percent Cytotoxicity
Observed: 25.6

Lab note: next compound to report on.
Recorded result, CC(C)C[C@H](NC(=O)[C@H](Cc1c[nH]cn1)NC(=O)CNC(=O)[C@@H](NC(=O)C(C)(C)NC(=O)[C@H](Cc1c[nH]c2ccccc12)NC(=O)[C@H](CCC(N)=O)NC(=O)[C@H](N)Cc1ccccc1)C(C)C)C(N)=O [SEQ ID: 4, D-Phe-Gln-Trp-Aib-Val-Gly-His-Leu-NH2] (H-[dF]QW[Aib]VGHL-NH2; N-terminus assumed) , Percent Cytotoxicity: 34.3
